- experimental.system: vaccinia DNA topoisomerase IB (vTopo) (Vaccinia virus)
- method: biochemical
observable: IC50

Q: Which value of IC50 has been reported for O=C(O)C(=O)Cc1ccc2c(c1)OCO2 in the records?
A: ~2000 nM

----------
- experimental.system: vaccinia DNA topoisomerase IB (vTopo) (Vaccinia virus)
- method: biochemical
- condition.info: read-out: % Inhibition (RNAse HTS)
observable: inhibition at 100 µM (%)
Answer format: numeric, % implied, no suffix.

Q: Which value of inhibition at 100 µM has been reported for Cc1c/c(=N\c2ccc3c(c2)c(N)cc(C)[n+]3C)nc(N)n1C [NSC 48223] in the records?
A: 100

Q: Now the compound CC(C)(C)C(=O)C(C(c1ccccc1)N1CCOCC1)N1CCOCC1 (stereo not shown) [NSC 33571]
A: 100

Q: Now the compound CN1CCN(c2ccc3[nH]c(-c4ccc5[nH]c(-c6ccc(O)cc6)nc5c4)nc3c2)CC1 [NSC 322921]
A: 100

Q: Now the compound O=C1CNCCCN2CCN(CCCNCC(=O)Nc3ccc(cc3)S(=O)(=O)c3ccc(cc3)NC(=O)CNCCCN3CCN(CCCNCC(=O)Nc4ccc(cc4)S(=O)(=O)c4ccc(cc4)N1)CC3)CC2 [NSC 95609]
A: 100
